Data origin: patent US20060034911A1

Assay: physchem
Conditions: 0.1 M HCl, simulated gastric fluid
assay_readout: solubility (mg/mL)
// note: answer is a bare numeric in mg/mL

(Q) Could you share which solubility value was measured for Br.Cc1ccc(N2CCN(C)CC2)c2c1CC[C@@H](NC(=O)c1ccc(N3CCOCC3)cc1)C2 ?
(A) 11

* * *

Assay: Plasma elimination half-life in man
Format: in vivo
Conditions: human, read-out: plasma elimination half-life, t1/2 (converted)
assay_readout: half-life (h)
Express the result in h but write the number alone.

(Q) Requested read-out: half-life. Entry: Br.Cc1ccc(N2CCN(C)CC2)c2c1CC[C@@H](NC(=O)c1ccc(N3CCOCC3)cc1)C2
(A) 35

* * *

Assay: physchem
Conditions: ethanol/water 1:1, aqueous with cosolvent or surfactant or cyclodextrin
assay_readout: solubility

(Q) Fill in the blank: the reported solubility of Br.Cc1ccc(N2CCN(C)CC2)c2c1CC[C@@H](NC(=O)c1ccc(N3CCOCC3)cc1)C2 is ____.
(A) 19 mg/mL

* * *

Assay: physchem
Conditions: water
assay_readout: solubility
Answers without a unit are incomplete; give the number and then its unit.

(Q) solubility for Br.Cc1ccc(N2CCN(C)CC2)c2c1CC[C@@H](NC(=O)c1ccc(N3CCOCC3)cc1)C2 ?
(A) 6400 µg/mL
